# Test system: U2OS
# assay_remarks: Multiplex assay against U2OS
# Assay type: toxicity, cell-based
# settings: human, 48 h, 10 µM, compound concentration 10 uM, replicate 2
readout_label: Population Pyknosed Nuclei (%)

| compound | system_under_test | assay_result |
| --- | --- | --- |
| CCCn1c(=O)c2[nH]c(C3CCCC3)nc2n(CCC)c1=O | U2OS | 6% |
| C[C@H]1[C@H]2CC[C@H]3[C@@H]4CC=C5C[C@@H](N(C)C)CC[C@]5(C)[C@H]4CC[C@]23CN1C [CONESSINE] | U2OS | 12% |
| O=C(NCC(=O)N1CC[C@H](N[C@H]2CC[C@@](O)(c3ccc(-c4ncccn4)cn3)CC2)C1)c1cccc(C(F)(F)F)c1 [PF-4136309] | U2OS | 18% |
| O=C(NCCO)c1cccc(-c2cc(Nc3ccc(OC(F)(F)F)cc3)ncn2)c1 | U2OS | 8% |

====

# Tested on: U2OS
# assay_remarks: Multiplex assay against U2OS
# Assay type: toxicity, cell-based
# settings: human, 48 h, 1 µM, compound concentration 1 uM, replicate 1
Each entry below carries its recorded Population Hoechst High Intensity Objects (%).
readout_label: Population Hoechst High Intensity Objects (%)

| compound | output_unit | assay_result |
| --- | --- | --- |
| CN(C)CCCc1cc(C(=O)Nc2ccc(-c3ccncc3)cc2)ccc1O.Cl.Cl | % | 3 |
| CCCn1c(=O)c2[nH]c(C3CCCC3)nc2n(CCC)c1=O | % | 1 |
| CC(C)(C)c1ccc(S(=O)(=O)Nc2ccc(Cl)cc2C(=O)c2cc[n+]([O-])cc2)cc1 | % | 3 |
| CCCN1CCC[C@@H]2Cc3n[nH]cc3C[C@H]21.Cl [QUINPIROLE HYDROCHLORIDE] | % | 1 |
| CN1CCN2c3ncccc3Cc3ccccc3C2C1 (centres undefined) | % | 2 |
| N#Cc1c(N)nc(SCc2csc(-c3ccc(Cl)cc3)n2)c(C#N)c1-c1ccc(OCCO)cc1 | % | 3 |
| O=C(NCC(=O)N1CC[C@H](N[C@H]2CC[C@@](O)(c3ccc(-c4ncccn4)cn3)CC2)C1)c1cccc(C(F)(F)F)c1 | % | 2 |
| O=C(O)Cc1ccccc1Nc1c(Cl)cccc1Cl | % | 4 |
| Cc1ccccc1C(=O)Nc1ccc(C(=O)N2CCCC(N(C)C)c3ccccc32)cc1.Cl (centres undefined) | % | 1 |

====

# System: U2OS
# assay_remarks: Multiplex assay against U2OS
# Type: toxicity, cell-based
# settings: human, 12 h, 10 µM, compound concentration 10 uM, replicate 1
Consider the following compounds and their measured Population Mitotic Cells (%) readings.

| compound | Population Mitotic Cells (%) |
| --- | --- |
| CCCN1CCC[C@@H]2Cc3n[nH]cc3C[C@H]21.Cl [QUINPIROLE HYDROCHLORIDE] | 41 |
| CCNC1(C(N)=O)CCN(c2ncnc3c2nc(-c2ccccc2Cl)n3-c2ccc(Cl)cc2)CC1 | 41 |
| C[C@H](NC(=O)c1c(C(F)F)nn(C)c1Oc1cccc(C(F)(F)F)c1)c1ccc(C(=O)O)cc1 | 16 |
| N[C@@]1(C(=O)O)CO[C@H]2[C@H](C(=O)O)[C@H]21 | 36 |
| c1cc(OCCCN2CCCCC2)ccc1CN1CCCCC1 | 26 |
| CN(C)CCCc1cc(C(=O)Nc2ccc(-c3ccncc3)cc2)ccc1O.Cl.Cl | 22 |
| Cc1ccccc1C(=O)Nc1ccc(C(=O)N2CCCC(N(C)C)c3ccccc32)cc1.Cl (stereo not drawn) | 40 |
| COc1ccc2c(c1)C(C(=O)N(Cc1ccc(N(C)C)cc1)c1ccc(C(C)C)cc1)CCC2.Cl (stereo not drawn) | 61 |
| CN1CCN2c3ncccc3Cc3ccccc3C2C1 (stereo not drawn) | 26 |
| CC1(COc2ccc3c(c2)ncn3-c2ccc3cccc(N4CCC(N)CC4)c3n2)COC1 | 18 |
| Cc1ccc(F)cc1C(=O)Nc1ccc(C(=O)N2Cc3cccn3Cc3ccccc32)c(Cl)c1 | 40 |
| C[C@H]1[C@H]2CC[C@H]3[C@@H]4CC=C5C[C@@H](N(C)C)CC[C@]5(C)[C@H]4CC[C@]23CN1C | 45 |
| N#Cc1c(N)nc(SCc2csc(-c3ccc(Cl)cc3)n2)c(C#N)c1-c1ccc(OCCO)cc1 | 35 |
| O=C(O)Cc1ccccc1Nc1c(Cl)cccc1Cl | 25 |
| C[C@@H]1C[C@H]2[C@@H]3CCC4=CC(=O)C=C[C@]4(C)[C@@]3(F)[C@@H](O)C[C@]2(C)[C@@]1(O)C(=O)CO | 19 |
| Cc1ccc(C(C)(O)c2nc3ccccc3s2)c(C)c1 (stereo not drawn) | 0 |
| Cc1ccc(-c2ccc(F)cc2COc2ccc(CCC(=O)O)cc2)cc1 | 25 |
| CSCC[C@H](NC=O)C(=O)N[C@@H](CC(C)C)C(=O)N[C@@H](Cc1ccccc1)C(=O)O | 30 |
